# Test system: Blumeria graminis
# assay procedure: Fungicidal activity against Blumeria graminis grown on compound pre-treated wheat seedlings assessed as inhibition of fungal growth at 6.25 mg/ml measured 7 days post fungal inoculation
# Format: functional
# Set-up: dose or concentration left out as unconfirmed
measured metric: inhibition (%)
Hi! Could you send only the number? It should be in %, unit omitted.

Example compounds with recorded inhibition:
Entry CO/N=C(/C(=O)OC)c1ccccc1CO/N=C(\C)C1=Cc2ccc(Cl)cc2C1 : reported inhibition = ?
90

# inhibition lookup, item CO/C=C(/C(=O)OC)c1ccccc1CO/N=C(\C)C1=Cc2ccc(Cl)cc2C1
100

What does the record list as inhibition for CNC(=O)/C(=N/OC)c1ccccc1CO/N=C(\C)C1=Cc2ccc(F)cc2C1 ?
100

What does the record list as inhibition for CO/N=C(/C(=O)OC)c1ccccc1CO/N=C(\C)C1=Cc2ccc(F)cc2C1 ?
85

Requested field: inhibition. Item: CO/N=C(/C(=O)OC)c1ccccc1COc1ccccc1C
100

Quick one: inhibition of CNC(=O)/C(=N/OC)c1ccccc1CO/N=C(\C)C1=Cc2ccccc2C1 ?
100

For the compound CNC(=O)/C(=N/OC)c1ccccc1CO/N=C(\C)C1=Cc2ccc(Cl)cc2C1 , what inhibition is on record?
100

Endpoint output: inhibition of CO/C=C(/C(=O)OC)c1ccccc1CO/N=C(\C)C1=Cc2cc(Cl)ccc2C1 . Value?
100

Further cases:
Look at this compound and give its reported inhibition. CNC(=O)/C(=N/OC)c1ccccc1CO/N=C(\C)C1=Cc2cc(F)ccc2C1
100
